- testedTarget: human LILRB2 expressed on cells (human, UniProt Q8N423 22-597)
- Sequence (Q8N423 other isoform, or with tags, fused parts or gaps limits assumed): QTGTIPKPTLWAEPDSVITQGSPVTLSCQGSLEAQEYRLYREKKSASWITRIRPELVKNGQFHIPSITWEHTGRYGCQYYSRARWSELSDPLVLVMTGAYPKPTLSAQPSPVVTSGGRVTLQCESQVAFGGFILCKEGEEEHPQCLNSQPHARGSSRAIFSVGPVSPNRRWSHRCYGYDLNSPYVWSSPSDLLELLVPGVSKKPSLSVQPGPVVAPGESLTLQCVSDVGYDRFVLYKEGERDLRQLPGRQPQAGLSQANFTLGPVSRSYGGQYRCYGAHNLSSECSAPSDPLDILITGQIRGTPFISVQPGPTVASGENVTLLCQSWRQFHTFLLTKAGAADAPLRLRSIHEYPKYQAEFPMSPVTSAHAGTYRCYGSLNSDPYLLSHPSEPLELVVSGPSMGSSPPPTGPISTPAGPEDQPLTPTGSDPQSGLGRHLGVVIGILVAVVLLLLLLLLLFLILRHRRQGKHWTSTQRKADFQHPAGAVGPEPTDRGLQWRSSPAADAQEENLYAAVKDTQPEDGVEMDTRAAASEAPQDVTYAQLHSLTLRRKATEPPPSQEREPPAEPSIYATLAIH
- protocolDetails: cell-based or functional assay
property: EC50, IL-6 production by LPS-stimulated HMDMs (nM)
Write the number in nM without appending the unit.

Looking for the measured EC50, IL-6 production by LPS-stimulated HMDMs of J-19.h4 (antibody, human IgG4 S228P, kappa, V domains shown, Humanized, human IgG4 backbone) VH: QVTLKESGPALVKPTHTLTLTCTFSGFSLNTYAMGVSWIRQPPGKALEWLASIWWNGNKYNNPSLKSRLTISKDTSKNQVVLTMTNMDPEDTATFYCAHSRIIRFTDYVMDAWGRGTTVTVSS VL: DIVMTQSPSSLSASVGDTVTITCRASEDIYNDLAWYQQKPGKAPQLLLYNANSLHTGVPSRFSGSGSGTDYTLTISTLQPEDFATYYCQQYYDYPLTFGPGTKVHIKR , can you help?
0.091
